FYI, the data here is from patent US20260151494A1.

system tested: T1, human CD71 extracellular domain (human, UniProt P02786 89-760)
T1 construct: also called hCD71; CD71-ECD
T1 sequence (P02786 89-760): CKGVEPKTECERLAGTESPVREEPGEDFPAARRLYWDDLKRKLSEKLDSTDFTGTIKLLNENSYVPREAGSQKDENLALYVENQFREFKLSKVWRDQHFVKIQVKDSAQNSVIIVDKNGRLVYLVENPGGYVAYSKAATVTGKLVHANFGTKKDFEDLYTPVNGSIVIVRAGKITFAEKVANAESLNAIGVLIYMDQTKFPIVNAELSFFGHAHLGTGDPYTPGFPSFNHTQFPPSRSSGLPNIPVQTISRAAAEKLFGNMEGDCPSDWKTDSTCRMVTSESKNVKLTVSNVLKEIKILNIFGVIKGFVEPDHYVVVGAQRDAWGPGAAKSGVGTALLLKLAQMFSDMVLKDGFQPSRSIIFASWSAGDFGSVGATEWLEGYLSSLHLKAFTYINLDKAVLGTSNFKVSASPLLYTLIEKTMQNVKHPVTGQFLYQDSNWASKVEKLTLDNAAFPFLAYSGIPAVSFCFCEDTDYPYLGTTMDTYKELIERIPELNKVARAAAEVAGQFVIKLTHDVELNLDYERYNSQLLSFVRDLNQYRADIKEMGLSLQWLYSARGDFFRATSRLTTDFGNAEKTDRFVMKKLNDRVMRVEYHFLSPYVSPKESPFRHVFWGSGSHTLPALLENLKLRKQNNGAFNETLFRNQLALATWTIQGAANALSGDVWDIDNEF
test summary: primary ELISA; further: test concentration or dose not given here
measurement label: RLU (RLU)
Hi! Could you send only the number? It should be in RLU, unit omitted.

Completed entries (count: 3):
binder | measurement unit | readout value
CD71-binding FN3 domain SEQ ID NO 406 (designed binder) MLPAPKNLVVSRVTEDSARLSWTAPDAAFDSFFIDYDESLDSGEAIVLTVPGSERSYDLTGLKPGTEYNVTIQGVKGGFPSSPLEAAFTT | RLU | 1.42e+06
CD71-binding FN3 domain SEQ ID NO 419 (designed binder) MLPAPKNLVVSRVTEDSARLSWTAPDAAFDSFFIGYLEPQPPGEAIALLVPGSERSYDLTGLKPGTEYNVTIQGVKGGFPSSPLNAYFTT | RLU | 3.6e+06
CD71-binding FN3 domain SEQ ID NO 358 (designed binder) MLPAPKNLVVSRVTEDSARLSWTAPDAAFDSFEIGYWENAYKGEAIVLTVPGSERSYDLTGLKPGTEYVVFIGGVKGGVWSVPLSAIFTT | RLU | 2.34e+06

Read the next record carefully.
According to the records, this binder CD71-binding FN3 domain SEQ ID NO 444 (designed binder) MLPAPKNLVVSRVTEDSARLSWTAPDAAFDSFEIDYVEFIFTGEAIGLIVPGSERSYDLTGLKPGTKYWVTIAGVKGGEWSTPLQAFFTT displays RLU of 2.8e+06
